biological target: Chaperone protein DnaK (Escherichia coli (strain K12)) (UniProt P0A6Y8); test: binders of DnaK substrate-binding domain, biophysical, NMR, chaperone (AID 1033); conditions: Purified DnaK SBD, NMR ligand binding
Sequence (P0A6Y8 whole entry, looked up, the tested form may be a part): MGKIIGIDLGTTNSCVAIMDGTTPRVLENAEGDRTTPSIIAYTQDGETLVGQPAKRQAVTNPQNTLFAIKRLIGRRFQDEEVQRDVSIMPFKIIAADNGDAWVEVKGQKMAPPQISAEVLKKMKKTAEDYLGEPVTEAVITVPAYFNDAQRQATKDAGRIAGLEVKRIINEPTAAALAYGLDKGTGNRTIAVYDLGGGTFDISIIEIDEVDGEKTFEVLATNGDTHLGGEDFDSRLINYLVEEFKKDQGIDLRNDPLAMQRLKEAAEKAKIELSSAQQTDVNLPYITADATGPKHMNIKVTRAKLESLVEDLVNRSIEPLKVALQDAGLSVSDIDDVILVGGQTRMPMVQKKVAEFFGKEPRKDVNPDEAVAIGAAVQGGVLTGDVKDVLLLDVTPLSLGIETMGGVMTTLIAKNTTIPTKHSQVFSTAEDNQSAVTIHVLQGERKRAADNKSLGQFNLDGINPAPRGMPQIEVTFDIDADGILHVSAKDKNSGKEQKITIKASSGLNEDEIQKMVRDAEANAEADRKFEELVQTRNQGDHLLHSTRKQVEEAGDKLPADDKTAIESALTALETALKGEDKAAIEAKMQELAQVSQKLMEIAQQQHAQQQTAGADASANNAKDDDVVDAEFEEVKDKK
Active and inactive are the calls of the source. No rule for the calls is given here.
Measure name: Kd

compound=CC(=O)Oc1ccc(O)cc1 result="> 4 mM (inactive)"
compound=O=C(O)CSCC(=O)Nc1cccc(O)c1 result="> 4 mM (inactive)"
compound=COC(=O)CSc1n[nH]c(N)n1 result="> 4 mM (inactive)"
compound=S=C(NC1CC1)NN1CCOCC1 result="> 4 mM (inactive)"
compound=Cc1cc(SCC(=O)c2ccccc2)nc(=O)[nH]1 result="> 4 mM (inactive)"
compound=CCOC(=O)c1cc(C)n(C)n1 result="> 4 mM (inactive)"
compound=CCOc1ccc(C)cc1S(=O)(=O)n1ccc(C)n1 result="> 4 mM (inactive)"
compound=COC(=O)c1c(SC)nc(-c2ccccc2)[nH]c1=O result="> 4 mM (inactive)"
compound=CCCn1cnn2c(=O)cc(C)nc12 result="> 4 mM (inactive)"
compound=O=C(O[C@@H]1Cc2c(O)cc(O)cc2O[C@@H]1c1cc(=O)c(O)c2c(O)c(O)cc([C@H]3Oc4cc(O)cc(O)c4C[C@H]3O)c2c1)c1cc(O)c(O)c(O)c1 result="> 4 mM (inactive)"
compound=Cc1[nH]c2ccccc2c1CN(C)C result="> 4 mM (inactive)"
compound="CC(C1OC(C)(C)C(O)C1O)[C@@H]1CC[C@]2(C)C3=CCC4C(C)(C)C(=O)CC[C@]4(C)C3CC[C@@]12C (some centres not stated)" result="> 4 mM (inactive)"

###

biological target: Chaperone protein DnaK (Escherichia coli (strain K12)); test: binders of DnaK substrate-binding domain, biophysical, NMR, chaperone (AID 1033); conditions: Purified DnaK SBD, NMR ligand binding
The source made the active and inactive calls. No rule for the calls is given here.
Measure name: Kd

compound=CC(C)=CCc1c2c(c3occ(-c4ccc(O)c(O)c4)c(=O)c3c1O)C=CC(C)(C)O2 result="> 4 mM (inactive)"
compound=O=C(O)c1coc2c1C(=O)CCC2 result="> 4 mM (inactive)"
compound=O=C1Cn2c(nc3ccccc32)N1c1ccccc1F result="> 4 mM (inactive)"
compound=O=C(OC[C@H]1O[C@H](OC(=O)c2cc(O)c(O)c(OC(=O)c3cc(O)c(O)c(O)c3)c2)[C@H](OC(=O)c2cc(O)c(O)c(OC(=O)c3cc(O)c(O)c(O)c3)c2)[C@@H](OC(=O)c2cc(O)c(O)c(OC(=O)c3cc(O)c(O)c(O)c3)c2)[C@@H]1OC(=O)c1cc(O)c(O)c(OC(=O)c2cc(O)c(O)c(O)c2)c1)c1cc(O)c(O)c(OC(=O)c2cc(O)c(O)c(O)c2)c1 result="> 4 mM (inactive)"
compound=NS(=O)(=O)c1ccc2c(c1)OCCO2 result="> 4 mM (inactive)"
compound=COc1ccc(CN2CCC(O)CC2)c(O)c1 result="> 4 mM (inactive)"
compound="CC1CC2(NC(=O)NC2=O)C(C)CN1C (centres undefined)" result="> 4 mM (inactive)"
compound=c1ccc(NCc2nc(-c3ccccc3)no2)cc1 result="> 4 mM (inactive)"
compound=COc1ccccc1Nc1nncc(=O)[nH]1 result="> 4 mM (inactive)"

###

target: Chaperone protein DnaK (Escherichia coli (strain K12)) (UniProt P0A6Y8); assay: binders of DnaK substrate-binding domain, biophysical, NMR, chaperone (AID 1033); conditions: Purified DnaK SBD, NMR ligand binding
The source made the active and inactive calls. No rule for the calls is given here.
Measure name: Kd

compound=O=C(CSc1cccc2cccnc12)N1CCCC1 measured_on="Chaperone protein DnaK (Escherichia coli (strain K12)) (UniProt P0A6Y8)" measure_name=Kd result="> 4 mM (inactive)"
compound=O=[N+]([O-])c1cccc(CN2CCC(O)CC2)c1 measured_on="Chaperone protein DnaK (Escherichia coli (strain K12)) (UniProt P0A6Y8)" measure_name=Kd result="> 4 mM (inactive)"
compound=COc1ccc(-c2oc3ccccc3c(=O)c2O)cc1OC measured_on="Chaperone protein DnaK (Escherichia coli (strain K12)) (UniProt P0A6Y8)" measure_name=Kd result="> 4 mM (inactive)"
compound=Nc1nc(CSc2ncn(-c3ccccc3)n2)cs1 measured_on="Chaperone protein DnaK (Escherichia coli (strain K12)) (UniProt P0A6Y8)" measure_name=Kd result="> 4 mM (inactive)"
compound=COC(=O)c1sccc1S(=O)(=O)N1CCCC1 measured_on="Chaperone protein DnaK (Escherichia coli (strain K12)) (UniProt P0A6Y8)" measure_name=Kd result="> 4 mM (inactive)"
compound=CC(=O)NN1C(=O)/C(=C\c2ccc(O)cc2)SC1=S measured_on="Chaperone protein DnaK (Escherichia coli (strain K12)) (UniProt P0A6Y8)" measure_name=Kd result="> 4 mM (inactive)"
compound=COc1c2ccoc2cc2oc(=O)ccc12 measured_on="Chaperone protein DnaK (Escherichia coli (strain K12)) (UniProt P0A6Y8)" measure_name=Kd result="> 4 mM (inactive)"
compound=Cc1nnc(Nc2cccnc2)[nH]c1=O measured_on="Chaperone protein DnaK (Escherichia coli (strain K12)) (UniProt P0A6Y8)" measure_name=Kd result="> 4 mM (inactive)"
compound=NC(=O)CSc1ccc2nnc(-c3cccs3)n2n1 measured_on="Chaperone protein DnaK (Escherichia coli (strain K12)) (UniProt P0A6Y8)" measure_name=Kd result="> 4 mM (inactive)"
compound=O=C1NC(=S)N/C1=C\c1cccc([N+](=O)[O-])c1 measured_on="Chaperone protein DnaK (Escherichia coli (strain K12)) (UniProt P0A6Y8)" measure_name=Kd result="> 4 mM (inactive)"
compound=O=C(NC1CC1)c1ccccc1[N+](=O)[O-] measured_on="Chaperone protein DnaK (Escherichia coli (strain K12)) (UniProt P0A6Y8)" measure_name=Kd result="> 4 mM (inactive)"
compound=O=C(O)CCn1c(=O)oc2ccccc21 measured_on="Chaperone protein DnaK (Escherichia coli (strain K12)) (UniProt P0A6Y8)" measure_name=Kd result="> 4 mM (inactive)"
compound=Cc1csc(SCC(=O)N2CCCC2)n1 measured_on="Chaperone protein DnaK (Escherichia coli (strain K12)) (UniProt P0A6Y8)" measure_name=Kd result="> 4 mM (inactive)"
compound=CC(=O)NC12CC3CC(C)(C1)CC(NC(C)=O)(C3)C2 measured_on="Chaperone protein DnaK (Escherichia coli (strain K12)) (UniProt P0A6Y8)" measure_name=Kd result="> 4 mM (inactive)"
compound=Nc1ncnc2nc(SCCN3CCCCC3)[nH]c12 measured_on="Chaperone protein DnaK (Escherichia coli (strain K12)) (UniProt P0A6Y8)" measure_name=Kd result="> 4 mM (inactive)"
compound=Cc1cc(O)cc(=O)o1 measured_on="Chaperone protein DnaK (Escherichia coli (strain K12)) (UniProt P0A6Y8)" measure_name=Kd result="> 4 mM (inactive)"
compound=Cc1nc(SCC#N)c2c(C)c(C)sc2n1 measured_on="Chaperone protein DnaK (Escherichia coli (strain K12)) (UniProt P0A6Y8)" measure_name=Kd result="> 4 mM (inactive)"
compound=CN(C)S(=O)(=O)Nc1ccc(Br)cc1F measured_on="Chaperone protein DnaK (Escherichia coli (strain K12)) (UniProt P0A6Y8)" measure_name=Kd result="> 4 mM (inactive)"
compound="O=C(O)C1CC(=O)N(Cc2ccco2)C1 (configuration not stated)" measured_on="Chaperone protein DnaK (Escherichia coli (strain K12)) (UniProt P0A6Y8)" measure_name=Kd result="> 4 mM (inactive)"
compound=Cc1[nH]c2ccccc2c(=O)c1CO measured_on="Chaperone protein DnaK (Escherichia coli (strain K12)) (UniProt P0A6Y8)" measure_name=Kd result="> 4 mM (inactive)"
compound=CC1(C)Cc2nc(N3CCOCC3)c(C#N)cc2CO1 measured_on="Chaperone protein DnaK (Escherichia coli (strain K12)) (UniProt P0A6Y8)" measure_name=Kd result="> 4 mM (inactive)"
compound=O=c1[nH]c(NCCO)nnc1Cc1ccccc1 measured_on="Chaperone protein DnaK (Escherichia coli (strain K12)) (UniProt P0A6Y8)" measure_name=Kd result="> 4 mM (inactive)"
compound=O=C1CCCN1C(=O)CN1CCOCC1 measured_on="Chaperone protein DnaK (Escherichia coli (strain K12)) (UniProt P0A6Y8)" measure_name=Kd result="> 4 mM (inactive)"
compound=COc1ccc(-c2cc(=O)c3c(O)cc(O[C@H]4O[C@H](CO[C@@H]5O[C@@H](C)[C@H](O)[C@@H](O)[C@H]5O)[C@@H](O)[C@H](O)[C@H]4O)cc3o2)cc1 measured_on="Chaperone protein DnaK (Escherichia coli (strain K12)) (UniProt P0A6Y8)" measure_name=Kd result="> 4 mM (inactive)"
compound=O=C1CNC(=O)N1Cc1ccc(Br)cc1 measured_on="Chaperone protein DnaK (Escherichia coli (strain K12)) (UniProt P0A6Y8)" measure_name=Kd result="> 4 mM (inactive)"
compound=O=C(O)/C=C/C=C/c1ccccc1 measured_on="Chaperone protein DnaK (Escherichia coli (strain K12)) (UniProt P0A6Y8)" measure_name=Kd result="> 4 mM (inactive)"
compound="Cc1nn2c(nc1=O)SCC2(O)c1ccccc1 (configuration not stated)" measured_on="Chaperone protein DnaK (Escherichia coli (strain K12)) (UniProt P0A6Y8)" measure_name=Kd result="> 4 mM (inactive)"

// data source = PubChem BioAssay AID1033
